biological target: UniProtKB P31648
RESULT TYPE: IC50 (µM)

# COMPOUND, RESULT TYPE, VALUE MEASURED
rows = [
    ("O=C(O)[C@@H]1CCCN(CCOCCN2c3ccccc3Sc3ccccc32)C1", "IC50", 0.3),
    ("CN(CCC=C(c1ccccc1)c1ccccc1)C(CO)C(=O)NCc1ccccc1Cl (centres undefined)", "IC50", 19),
    ("CN(CCC=C(c1ccccc1)c1ccccc1)C(CN)C(=O)NCc1ccccc1Cl (centres undefined)", "IC50", 13),
    ("CC(CC(=O)O)NCCOCCN1c2ccccc2Sc2ccccc21 (centres undefined)", "IC50", 9),
]

====

molecular target: Cholinesterase (Equus caballus) (UniProt P81908); assay: Inhibition of equine serum BuChE using butyrylthiocholine iodide as substrate at 10 uM preincubated for 5 mins followed by substrate addition and measured after 5 mins by DTNB reagent based Ellman's method relative to control; conditions: time 10.0 min
Sequence (P81908 whole entry): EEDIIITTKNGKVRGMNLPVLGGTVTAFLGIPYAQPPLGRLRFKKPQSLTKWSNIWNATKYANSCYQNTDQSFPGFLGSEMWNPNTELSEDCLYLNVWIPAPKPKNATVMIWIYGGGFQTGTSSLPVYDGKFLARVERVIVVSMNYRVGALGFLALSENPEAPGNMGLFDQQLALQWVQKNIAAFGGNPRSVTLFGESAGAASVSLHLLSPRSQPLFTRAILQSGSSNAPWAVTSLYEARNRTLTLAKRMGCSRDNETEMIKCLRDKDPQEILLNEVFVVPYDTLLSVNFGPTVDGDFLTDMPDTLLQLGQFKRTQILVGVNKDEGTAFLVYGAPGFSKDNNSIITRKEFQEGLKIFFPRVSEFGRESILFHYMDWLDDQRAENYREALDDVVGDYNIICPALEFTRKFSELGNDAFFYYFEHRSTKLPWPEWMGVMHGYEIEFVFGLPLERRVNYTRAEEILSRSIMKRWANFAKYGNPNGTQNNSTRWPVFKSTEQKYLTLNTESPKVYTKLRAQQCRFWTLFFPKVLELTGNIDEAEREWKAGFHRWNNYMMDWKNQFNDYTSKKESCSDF
Measured inhibition of individual entries

# COMPOUND, QUALIFIER OPERATOR, inhibition / %
measured = [
    ("CN(CCC=C1c2ccccc2C=Cc2ccccc21)C(CCO)C(=O)NCc1ccccc1Cl (stereo not given)", "=", 32),
    ("CN(CCC=C1c2ccccc2CCc2ccccc21)C(CO)C(=O)NCc1ccccc1Cl (stereo not given)", "=", 52),
    ("CN(CCC=C1c2ccccc2CCc2ccccc21)C(CO)C(=O)NCc1ccc(Cl)cc1 (stereo not given)", "=", 36),
    ("CN(CC/C=C/c1ccccc1-c1ccc(Cl)cc1Cl)C(CCO)C(=O)NCc1ccccc1 (stereo not given)", "=", 47),
    ("O=C(NC1CCN(C(c2ccccc2)c2ccccc2)CC1)C1CC2c3ccccc3NC2CN1 (stereo not given)", "<", 10),
    ("Cc1ccc(CNC(=O)C(CCO)N(C)CCC=C2c3ccccc3C=Cc3ccccc32)cc1 (stereo not given)", "=", 35),
    ("Cc1ccc(CNC(=O)C(CCO)N(C)CCC=C2c3ccccc3CCc3ccccc32)cc1 (stereo not given)", "=", 36),
    ("CN(CCC=C1c2ccccc2-c2ccccc21)C(CCO)C(=O)NCc1ccc(Cl)cc1 (stereo not given)", "=", 46),
    ("CN(CCC=C1c2ccccc2CCc2ccccc21)C(CCO)C(=O)NCc1ccc(F)cc1 (stereo not given)", "=", 39),
    ("Cc1ccc(CNC(=O)C(CCO)N(C)CCC=C2c3ccccc3-c3ccccc32)cc1 (stereo not given)", "=", 52),
    ("CN(CCC=C1c2ccccc2CCc2ccccc21)C(CCO)C(=O)NCc1ccc(Cl)cc1 (stereo not given)", "=", 19),
    ("CN(CCC=C1c2ccccc2C=Cc2ccccc21)C(CO)C(=O)NCc1ccc(Cl)cc1 (stereo not given)", "=", 40),
    ("CC(O)CC(C(=O)NCc1ccccc1Cl)N(C)CC/C=C/c1ccccc1-c1ccccc1 (racemic; form 1)", "=", 64),
    ("CN(CCC=C1c2ccccc2CCc2ccccc21)C(CO)C(=O)NCc1ccc(F)cc1 (stereo not given)", "=", 32),
    ("CC(=O)NCCC(C(=O)NCc1ccc(C)cc1)N(C)CCC=C1c2ccccc2CCc2ccccc21 (stereo not given)", "=", 43),
    ("CC(=O)NCCC(C(=O)NCc1ccccc1)N(C)CCOCCN1c2ccccc2Sc2ccccc21 (stereo not given)", "=", 58),
    ("CN(CCC=C1c2ccccc2C=Cc2ccccc21)C(CCO)C(=O)NCc1ccccc1 (stereo not given)", "=", 56),
    ("CC(=O)NCCC(C(=O)NCc1ccccc1Cl)N(C)CCC=C1c2ccccc2CCc2ccccc21 (stereo not given)", "=", 41),
    ("CN(CCC=C1c2ccccc2C=Cc2ccccc21)C(CCO)C(=O)NCc1ccc(F)cc1 (stereo not given)", "=", 39),
    ("CC(=O)NCCC(C(=O)NCc1ccc(F)cc1)N(C)CCC=C1c2ccccc2CCc2ccccc21 (stereo not given)", "=", 47),
    ("CC(O)CC(C(=O)NCc1ccc(F)cc1)N(C)CC/C=C/c1ccccc1-c1ccccc1 (racemic; form 2)", "=", 62),
    ("Cc1ccc(CNC(=O)C(CO)N(C)CCC=C2c3ccccc3CCc3ccccc32)cc1 (stereo not given)", "=", 45),
    ("CC(=O)NCCC(C(=O)NCc1ccc(Cl)cc1)N(C)CCC=C1c2ccccc2CCc2ccccc21 (stereo not given)", "=", 24),
    ("CN(CCC=C1c2ccccc2CCc2ccccc21)C(CCO)C(=O)NCc1ccccc1Cl (stereo not given)", "=", 24),
    ("CC(=O)NCCC(C(=O)NCc1ccccc1)N(C)CCC=C1c2ccccc2CCc2ccccc21 (stereo not given)", "=", 60),
    ("CN(CCC=C1c2ccccc2C=Cc2ccccc21)C(CCO)C(=O)NCc1ccc(Cl)cc1 (stereo not given)", "=", 21),
    ("CC(O)CC(C(=O)NCc1ccccc1)N(C)CC/C=C/c1ccccc1-c1ccccc1 (racemic; form 1)", "=", 58),
    ("CN(CCC=C1c2ccccc2CCc2ccccc21)C(CO)C(=O)NCc1ccccc1 (stereo not given)", "=", 38),
    ("CC(O)CC(C(=O)NCc1ccc(F)cc1)N(C)CC/C=C/c1ccccc1-c1ccccc1 (racemic; form 1)", "=", 59),
    ("CN(CCC=C1c2ccccc2CCc2ccccc21)C(CCO)C(=O)NCc1ccccc1 (stereo not given)", "=", 38),
]

====

Assay read-out pIC50; system under study: Cholinesterase (Equus caballus).
Sequence (P81908 whole entry): as above
pIC50: −log10 of the molar value.

# COMPOUND, MEASURED ON, pIC50
records = [
    ("CN(CC/C=C/c1ccccc1-c1ccccc1)C(CO)C(=O)NCc1ccc(F)cc1 (centres undefined)", "Cholinesterase (Equus caballus)", 6.04),
    ("CN(CCOCCN1c2ccccc2Sc2ccccc21)C(CCO)C(=O)NCc1ccc(F)cc1 (centres undefined)", "Cholinesterase (Equus caballus)", 5.34),
    ("Cc1ccc(CNC(=O)C(CO)N(C)CCC=C2c3ccccc3C=Cc3ccccc32)cc1 (centres undefined)", "Cholinesterase (Equus caballus)", 5.21),
    ("CN(CCOCCN1c2ccccc2Sc2ccccc21)C(CCO)C(=O)NCc1ccc(Cl)cc1 (centres undefined)", "Cholinesterase (Equus caballus)", 5.37),
    ("CC(=O)NCCC(C(=O)NCc1ccccc1Cl)N(C)CCOCCN1c2ccccc2Sc2ccccc21 (centres undefined)", "Cholinesterase (Equus caballus)", 5.55),
    ("CN(CCC=C1c2ccccc2CCc2ccccc21)C(CCN)C(=O)NCc1ccc(F)cc1 (centres undefined)", "Cholinesterase (Equus caballus)", 5.92),
    ("CC(=O)NCCC(C(=O)NCc1ccc(F)cc1)N(C)CCOCCN1c2ccccc2Sc2ccccc21 (centres undefined)", "Cholinesterase (Equus caballus)", 5.08),
    ("CN(CCC=C(c1ccccc1)c1ccccc1)C(=O)C1Cc2c([nH]c3ccccc23)CN1 (centres undefined)", "Cholinesterase (Equus caballus)", 5.50),
    ("CN(CCC=C1c2ccccc2CCc2ccccc21)C(CCN)C(=O)NCc1ccc(Cl)cc1 (centres undefined)", "Cholinesterase (Equus caballus)", 5.53),
]

====

target: GABA transporter 2 (Mus musculus, UniProt P31651); assay: Inhibition of mouse GAT2 transfected in HEK293 cells assessed as reduction in [3H]-GABA uptake preincubated for 25 mins followed by [3H]-GABA addition and measured after 10 mins by liquid scintillation counting analysis; format: cell-based; conditions: read-out: pIC50 (converted)
Sequence (P31651 whole entry): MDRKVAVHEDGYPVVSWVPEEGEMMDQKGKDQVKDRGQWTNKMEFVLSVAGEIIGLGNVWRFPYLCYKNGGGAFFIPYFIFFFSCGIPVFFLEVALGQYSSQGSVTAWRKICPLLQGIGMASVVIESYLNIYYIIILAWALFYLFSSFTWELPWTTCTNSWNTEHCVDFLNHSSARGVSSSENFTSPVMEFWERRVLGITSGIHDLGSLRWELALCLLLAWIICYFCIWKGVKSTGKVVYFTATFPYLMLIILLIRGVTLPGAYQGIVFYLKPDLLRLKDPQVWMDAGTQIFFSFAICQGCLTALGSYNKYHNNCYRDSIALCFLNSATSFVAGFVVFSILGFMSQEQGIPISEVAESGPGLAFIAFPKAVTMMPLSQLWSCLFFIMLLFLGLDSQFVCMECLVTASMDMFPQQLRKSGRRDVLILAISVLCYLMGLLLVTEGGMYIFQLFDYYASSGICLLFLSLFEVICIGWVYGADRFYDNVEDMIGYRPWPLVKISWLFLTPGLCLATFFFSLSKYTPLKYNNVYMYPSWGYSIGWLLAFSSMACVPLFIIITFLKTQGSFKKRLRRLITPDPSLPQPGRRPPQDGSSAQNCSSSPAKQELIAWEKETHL
Measured IC50 of individual entries

# MOLECULE, MEASURED ON, IC50 [µM]
records = [
    ("CC(O)CC(C(=O)NCc1ccccc1)N(C)CC/C=C/c1ccccc1-c1ccccc1 (racemic; form 2)", "GABA transporter 2 (Mus musculus, UniProt P31651)", 15.1),
    ("CN(CCOCCn1c2ccccc2c2ccccc21)C(CCN)C(=O)NCc1ccc(F)cc1 (centres undefined)", "GABA transporter 2 (Mus musculus, UniProt P31651)", 20),
    ("Cc1ccc(CNC(=O)C(CCO)N(C)CCOCCN2c3ccccc3Sc3ccccc32)cc1 (centres undefined)", "GABA transporter 2 (Mus musculus, UniProt P31651)", 12.9),
    ("CN(CCOCCn1c2ccccc2c2ccccc21)C(CCO)C(=O)NCc1ccccc1 (centres undefined)", "GABA transporter 2 (Mus musculus, UniProt P31651)", 26.9),
    ("CC(=O)NCCC(C(=O)NCc1ccccc1)N(C)CCOCCN1c2ccccc2Sc2ccccc21 (centres undefined)", "GABA transporter 2 (Mus musculus, UniProt P31651)", 19.1),
    ("CC(O)CC(C(=O)NCc1ccccc1Cl)N(C)CC/C=C/c1ccccc1-c1ccccc1 (racemic; form 1)", "GABA transporter 2 (Mus musculus, UniProt P31651)", 15.5),
    ("CN(CCOCCn1c2ccccc2c2ccccc21)C(CCN)C(=O)NCc1ccccc1 (centres undefined)", "GABA transporter 2 (Mus musculus, UniProt P31651)", 15.8),
    ("CN(CCOCCn1c2ccccc2c2ccccc21)C(CCN)C(=O)NCc1ccccc1Cl (centres undefined)", "GABA transporter 2 (Mus musculus, UniProt P31651)", 8.32),
    ("CN(CC/C=C/c1ccccc1-c1ccccc1)C(CO)C(=O)NCc1ccccc1 (centres undefined)", "GABA transporter 2 (Mus musculus, UniProt P31651)", 20),
]
